- Method description: recombinant barcode read abundance after kanamycin selection (control-corrected) (log10(CPM+1)); higher = more efficient recombination; sequences stand for … in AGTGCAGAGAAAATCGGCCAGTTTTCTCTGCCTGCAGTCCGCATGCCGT…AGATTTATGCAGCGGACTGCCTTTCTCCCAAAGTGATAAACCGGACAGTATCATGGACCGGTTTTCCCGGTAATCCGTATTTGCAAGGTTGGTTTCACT; site = the 11-nt target;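 note: IS621 recombinase and bridge RNA in Escherichia coli cells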
Experimental readout: recombinant barcode read abundance (log10)

ACATGTACTTGGGTTCTAACCTGTTGCAT (site ACATGAACTAT) : 0.0356
TACTATGCTTGGGTTCTAACCTGTTGCCT (site TACTATACTAG) : 0.211
AGGAGCCCTTGGGTTCTAACCTGTTGCCT (site AGGAGCCCTAG) : 1.48
CTCCCATCTTGGGTTCTAACCTGTTGCGT (site CTCCCATCTAC) : 0.874
GGTGCTCCTTGGGTTCTAACCTGTTGCAG (site GGTGCTCCTGT) : 0
